Origin of measurements: patent US20210300936A1

molecular target: human A2A receptor (A2AR) (Homo sapiens, UniProt P29274); test: Luciferase reporter assay (HEK293-A2AR-luc2p/CRE/Hygro cells, 3 nM CGS21680); conditions: 3 nM CGS21680, 5 h incubation
Sequence (P29274 whole entry): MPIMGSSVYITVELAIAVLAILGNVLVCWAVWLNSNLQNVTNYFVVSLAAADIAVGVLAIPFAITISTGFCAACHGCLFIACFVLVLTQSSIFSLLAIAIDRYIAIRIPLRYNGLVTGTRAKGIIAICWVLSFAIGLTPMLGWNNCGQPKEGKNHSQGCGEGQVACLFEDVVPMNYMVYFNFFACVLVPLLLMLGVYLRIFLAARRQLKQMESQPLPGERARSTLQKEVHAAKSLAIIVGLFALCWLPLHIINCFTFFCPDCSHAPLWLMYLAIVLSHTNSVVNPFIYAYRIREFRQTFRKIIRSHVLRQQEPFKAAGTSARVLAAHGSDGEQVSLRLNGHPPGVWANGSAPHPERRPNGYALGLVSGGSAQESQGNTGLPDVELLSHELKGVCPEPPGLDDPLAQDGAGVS
property label: IC50 (nM)

>  <molecule>
COCCOc1ccc(N2CCN(C(=O)C(c3ccccc3)n3ncc4c3nc(N)n3nc(-c5ccco5)nc43)C[C@H]2C)cc1 (stereo partly shown)

>  <IC50 [nM]>
2.8

$$$$

P. C[C@@](C(=O)N1CCN(c2ccc(OCCCN3CCOCC3)cc2)CC1)(c1ccccc1)n1ncc2c1nc(N)n1nc(-c3ccco3)nc21 [Compound A76a]
Q. CC(C(=O)N1CCc2cc(F)ccc2C1)(c1ccccc1)n1ncc2c1nc(N)n1nc(-c3ccco3)nc21 (stereo not shown)
R. Nc1nc2c(cnn2C(C(=O)N2CCc3cc(F)ccc3C2)c2ccccc2)c2nc(-c3ccco3)nn12 (single isomer, unassigned) [Compound B7a]
[in] Order these by IC50, descending, and give the full ranking. Reply format: the labels, ordered as requested.
[out] Q, R, P
(Q: 112 nM, R: 29.1 nM, P: 19.1 nM)
